Could you please report measured pIC50 for the items listed next?
test system: Human immunodeficiency virus 1; assay: Inhibitory activity against HIV-1 mutant strain 188L; type: functional, organism-based
Numbers only, as −log10 of the molar value.

Guide cases for pIC50, answers given:
MOLECULE	VALUE REPORTED
CCc1c(C)nc(O)c(N(C)C)c1C(=O)c1cccc(C=O)c1	5.00
CCc1c(C)nc(O)c(N(C)C)c1C(=O)c1cccc(CCC#N)c1	5.70

Would you mind listing pIC50 for each of the following molecules?
1. CCc1c(C)nc(O)c(N(C)C)c1C(=O)c1cccc(CC(C)C#N)c1 (stereo not drawn)
2. CCOC(=O)/C=C/C=C/c1cccc(C(=O)c2c(CC)c(C)nc(O)c2N(C)C)c1
3. C/C=C/c1cccc(C(=O)c2c(CC)c(C)nc(O)c2N(C)C)c1
4. CCc1c(C)nc(O)c(N(C)C)c1Cc1cccc(F)c1

[5.70, 6.20, 6.41, 5.80]
